# System: Rattus norvegicus
# TEST DESCRIPTION: In vivo calcemic activity in vitamin D-deficient Sprague-Dawley rat assessed as bone calcium mobilization measured by serum Ca2+ level at 35100 pmol, ip administered 4 consecutive daily doses assessed after 24 hrs of last dose by atomic absorption spectrometry
# Format: organism-based
VALUE KIND: Activity (mg/dL)

C=C1[C@H](O)CC(=C/C=C2\CCC[C@]3(C)[C@@H]([C@@H](C)CCC[C@H](C)O)CC[C@@H]23)C[C@H]1O | 4.9
C=C1[C@H](O)CC(=C/C=C2\CCC[C@]3(C)[C@@H]([C@H](C)CCC[C@H](C)O)CC[C@@H]23)C[C@H]1O | 4.9
[H][C@@]12CC[C@]([H])([C@H](C)CCC[C@@H](C)O)[C@@]1(C)CCC/C2=C\C=C1/C[C@@H](O)[C@H](C)[C@H](O)C1 (stereo partly specified) | 4.2
[H][C@@]12CC[C@]([H])([C@H](C)CCC[C@H](C)O)[C@@]1(C)CCC/C2=C\C=C1\C[C@@H](O)[C@H](C)[C@H](O)C1 (stereo partly specified) | 4.5
C=C1[C@H](O)CC(=C/C=C2\CCC[C@]3(C)[C@@H]([C@H](C)CCC[C@@H](C)O)CC[C@@H]23)C[C@H]1O | 4.5
[H][C@@]12CC[C@]([H])([C@@H](C)CCC[C@H](C)O)[C@@]1(C)CCC/C2=C\C=C1\C[C@@H](O)[C@H](C)[C@H](O)C1 (stereo partly specified) | 5
